- ASSAY: self-splicing fitness, log relative to wild type (ln ratio); higher = more splicing; Tetrahymena group I intron in knt gene, E. coli kanamycin selection, DiMSum; sequences stand for … in CUCUCU…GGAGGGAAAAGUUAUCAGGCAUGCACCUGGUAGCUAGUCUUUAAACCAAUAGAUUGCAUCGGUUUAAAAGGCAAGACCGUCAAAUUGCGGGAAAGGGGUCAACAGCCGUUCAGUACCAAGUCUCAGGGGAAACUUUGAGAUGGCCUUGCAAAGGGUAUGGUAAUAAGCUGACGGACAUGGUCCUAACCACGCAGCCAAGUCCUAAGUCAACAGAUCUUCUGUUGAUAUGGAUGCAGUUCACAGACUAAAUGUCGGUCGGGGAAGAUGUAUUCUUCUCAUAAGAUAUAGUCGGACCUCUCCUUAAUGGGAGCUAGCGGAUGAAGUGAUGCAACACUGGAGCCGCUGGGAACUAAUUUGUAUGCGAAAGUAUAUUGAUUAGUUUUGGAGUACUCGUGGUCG;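 also: selection with 25 µg/mL kanamycin versus none on LB agar overnight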
- ASSAY CONTEXT: 37 °C
Use self-splicing fitness (ln) to assign classes; range list: zone 1 (below -2), zone 2 (-2 to below -1), zone 3 (-1 or more)

Sample answers from the record:
        sequence_record  group_label
0  UUCUAGCAAUAUUACGAGGU       zone 2
1  AGCUAGCAAUAUUACGAACU       zone 3
2  GGCAAGCAAUAUUACGCCAG       zone 1
3  CCACAGCAAUAUUACGUCUC       zone 1

// query // return the class label for AUCUAGCAAUAUUACGGUUC
// result zone 1

// query // return the class label for GCUUAGCAAUAUUACGAUCA
// result zone 3
